Tested on: AsPC-1 pancreatic cancer cells
Test: Cytotoxicity of test articles (TC50), MTT assay
Type: cell-based, Human
Details: AsPC-1 cells, 72 hrs, concentration at which cell viability was reduced to 50%
READOUT_LABEL: CC50 (µM)
Please respond with the number in µM and leave the unit unwritten.

Give the value of CC50 reported for the following: O=C1[O][Pt]2([NH][C@@H]3CCCC[C@H]3[NH]2)[O]C1=O [Oxaliplatin]
57.9

====

Tested on: AsPC-1 pancreatic cancer cells
Assay: Cytotoxicity of test articles (TC50), MTT assay
Type: cell-based, Human
Settings: AsPC-1 cells, 48 hrs, concentration at which cell viability was reduced to 50%
READOUT_LABEL: CC50

Please respond with reported CC50 (system AsPC-1 pancreatic cancer cells) for O=C1[O][Pt]2([NH][C@@H]3CCCC[C@H]3[NH]2)[O]C1=O [Oxaliplatin] .
655 µM
